- System: SF-295 CNS
- run_description: NCI tumour cell line growth inhibition, 48 h
The reader will find reported TGI values listed item by item below.

| molecule | TGI |
| --- | --- |
| C[n+]1cccc2c(=O)c3ccccc3oc21 | > 100 µM |
| O=C1NC(=O)C(C(CC(=O)c2ccc([N+](=O)[O-])cc2)c2ccccc2)C(=O)N1 (centres undefined) | 54.9 µM |
| COc1cc2c(cc1OC)[C@H](C)N1CCc3cc(OC)c(OC)cc3[C@@H]1C2 | > 100 µM |
| O=C1CCCCC/C1=C\c1ccc([N+](=O)[O-])cc1 | > 100 µM |
| COc1cccc(-c2c[nH]c3c(N/N=C/c4ccncc4)ncnc23)c1 | > 25 µM |
| CN(C)c1ccc(/C(F)=C(F)/C(F)=C(F)/C(F)=C(\F)c2ccc(Br)cc2)cc1 | > 52.1 µM |
| CC(CN(C)C)/C(=N\Nc1ccccc1)c1ccccc1 (centres undefined) | 0.358 µM |
| C#CC#CC#CC#CC#CC#CC#CC#CCC1OCC(COC(=O)O[C@@H](C(=O)O[C@H]2C[C@@]3(O)[C@@H](OC(=O)c4ccccc4)[C@@H]4[C@]5(OC(C)=O)CO[C@@H]5C[C@H](O)[C@@]4(C)C(=O)[C@H](OC(C)=O)C(=C2C)C3(C)C)[C@@H](NC(=O)c2ccccc2)c2ccccc2)O1 (some centres undefined) | > 11.6 µM |
| CN(C(=O)C12C3C4C1C1C2C3C41C(N)=O)C(C)(C)C (centres undefined) | > 100 µM |
| c1cncc(C2N3CCCCC3[C@@H]3c4[nH]c5ccccc5c4CCN23)c1 (some centres undefined) | > 100 µM |
| CCCCOC(=O)N1CCN(/[N+]([O-])=N/Oc2ccc([N+](=O)[O-])cc2[N+](=O)[O-])CC1 | > 100 µM |
| O=C(O)CC[C@H](NC(=O)c1ccc(-n2nc3ccc(O)cc3nc2=O)cc1)C(=O)O | > 100 µM |
| CCOC(C[C@H](O[Si](C)(C)C(C)(C)C)[C@H]1COC(=S)S1)OCC | > 100 µM |
| Cc1cc(F)ccc1S(=O)(=O)Nc1cc(-c2c(O)ccc3ccccc23)c(O)c2ccccc12 | 10.3 µM |

* * *

- Tested on: RXF-631 renal
- run_description: NCI tumour cell line growth inhibition, 48 h
Documented TGI across a set of compounds

| compound | TGI |
| --- | --- |
| Cc1ccc2c(c1)-c1c3c(nn1-c1ccccc1)-c1ccccc1SC3O2 (stereo unspecified) | 16.1 µM |
| OC1(C23CC4CC(CC(C4)C2)C3)CSCC1(O)C12CC3CC(CC(C3)C1)C2 (stereo unspecified) | > 100 µM |
| CSc1nnc(CCC(=O)Nc2c(C)cccc2C)o1 | > 100 µM |
| O=c1cnn(C2OC(CO)C(O)C2O)c(=S)[nH]1 (stereo unspecified) | > 100 µM |
| Cc1ccccc1C1OC(=O)c2ccc3ccccc3c21 (stereo unspecified) | 3.23 µM |
| OC(CCNC12CC3CC(CC(C3)C1)C2)c1ccccc1 (stereo unspecified) | > 100 µM |

* * *

- System: PC-3 prostate
- run_description: NCI tumour cell line growth inhibition, 48 h
Each entry below carries its reported GI50.

| compound | GI50 |
| --- | --- |
| Cn1ncnc1[C@H]1c2n[nH]c(=O)c3cc(F)cc(c23)N[C@@H]1c1ccc(F)cc1 | > 100000 nM |
| COC1CC(O[C@H]2CC[C@@]3(C)[C@H](CC[C@@H]4[C@@H]3CC[C@]3(C)[C@@H](C5=CC(=O)OC5)[C@@H](OC(C)=O)C[C@]43O)C2)OC(C)C1O (stereo partly specified) | < 10 nM |
| C#CC#CC#CC#CC#CC#CC#CC#CCC1OCC(COC(=O)O[C@@H](C(=O)O[C@H]2C[C@@]3(O)[C@@H](OC(=O)c4ccccc4)[C@@H]4[C@]5(OC(C)=O)CO[C@@H]5C[C@H](O)[C@@]4(C)C(=O)[C@H](OC(C)=O)C(=C2C)C3(C)C)[C@@H](NC(=O)c2ccccc2)c2ccccc2)O1 (stereo partly specified) | 268 nM |
| C=C1C(O)C2C(=C(CC)C13CC3)C(=O)C(C)(C)C2OC (stereo unspecified) | 35200 nM |
| Cc1[nH]c2ccccc2c1CCCO | > 100000 nM |
| O=C(Nc1ccc(Br)cc1F)c1cc(I)ccc1O | 2310 nM |
| CSC1=C(N)C(=O)c2[nH]cc(CO)c2C1=N | 212 nM |
| O=C1c2cc3c(cc2[C@@H]2[C@H]1c1ccc([N+](=O)[O-])cc1C(=O)N2CCCBr)OCO3 | < 10 nM |
| O=C(/C=C/Sc1cc(C(F)(F)F)cc(C(F)(F)F)c1)c1ccc(Cl)cc1 | 2420 nM |
| COc1ccc2c(c1)c(CC(=O)[Se]C)c(C)n2C(=O)c1ccc(Cl)cc1 | > 337 nM |
| CN(C)CCN1C(=O)c2c(c3c4ccccc4n4c3c3c2c2ccccc2n3C2CC(O)C(O)C4(C)O2)C1=O (stereo unspecified) | 2050 nM |
| C[C@H]1CC[C@@]2(NC1)O[C@H]1C[C@H]3[C@@H]4CC[C@H]5C[C@@H](O)CC[C@]5(C)[C@H]4CC[C@]3(C)[C@H]1[C@@H]2C | 12500 nM |
| CC1(C)C2CCC13C(=O)C1OC3(C2)C2C(=O)c3ccccc3C(=O)C12 (stereo unspecified) | 77200 nM |
| CCCCOC(=O)N1CCN(/[N+]([O-])=N/Oc2ccc([N+](=O)[O-])cc2[N+](=O)[O-])CC1 | 14000 nM |
| CC1=C(c2cccc(O)c2)[C@H](c2ccc(OCCN3CC(CF)C3)cc2)Oc2ccc(O)cc21 | 5800 nM |
| O=C(N/N=C/C=C/c1ccc([N+](=O)[O-])o1)c1cc2ccccc2cc1O | 2020 nM |

Values from PubChem BioAssay (NCI)
